# key: entry, value: apparent KD of MS2 coat protein
test system: MS2 coat protein; assay: apparent KD of MS2 coat protein, switch ON state; designed switch direction (-1 OFF switch, 1 ON switch): 1; higher = weaker reporter binding; conditions: FMN input: 0 or 200 uM; Eterna round: R93 (includes R88 designs)
Your answer should be a plain number; it is taken to be in nM.

Annotate the sequence AUAUAUAUAAGGUAGGAUAUCCAAUAAUCCACAUGAGGAUCACCCAUGUAAAGAAAGAAAAAGUGGGAGAAGGGCCAUAUAUAUA [viburnum 7] with its measured apparent KD of MS2 coat protein. 17.4

Annotate the sequence UAUAAACAUGAGGAUCACCCAUGUAGAAAUAUGGGAGGAUAUACGAAGACGAAAGUCAAAGUAGAAGGCCUAAUAU [Mat - Same State 1 - Eli mod - D113] with its measured apparent KD of MS2 coat protein. 16.9

Annotate the sequence AGAAAACAUGAGGAUCACCCAUGUAGAAACAUGGGAGGAUAUACAAAGACGAAAGUCAAAGUAGAAGGCCUAAAAA [Mat - Same State 1 - Mod - D163] with its measured apparent KD of MS2 coat protein. 75.7

Annotate the sequence AAAAAACAUGAGGAUCACCCAUGUGACAACAUGGGAGGAUAUACAAAGACGAGAGUCGAAGUAGAAGGCCUAAAAA [Garnet 77] with its measured apparent KD of MS2 coat protein. 66.1

Annotate the sequence AACAAUCUAUCUGAGGAUAUGUGUCGAAAGACAUGAGGAUCACCCAUGUAAAAACAUGGAAAAUCACAGAAGGCAGAUAGAUUGA [SS2: 1145] with its measured apparent KD of MS2 coat protein. 127

Annotate the sequence AAAAAACAUGAGGAUCACCCAUGUCUUCGGACAUGAGGAUAUGUACAGACUUCGGUCUGUACAGAAGGCAUAAAAA [SS1 - 1010] with its measured apparent KD of MS2 coat protein. 221

Annotate the sequence UAGAGAACAGGGUAGGAUAUGCAUGGUCGUACAUGAGGAUCACCCAUGUAGUCUAGAAAAUAAAUGCAGAAGGACCAAAAGAAAA [Edsodiin] with its measured apparent KD of MS2 coat protein. 15.6
